Experiment summary: qHTS Assay for Inhibitors of Hepatitis C Virus (HCV)
Cond: Huh7.5.1 HCVcc-Cre infection, luciferase reporter, 44 h; series mostly up to 41.8 µM
In all, about 340,000 compounds went through this assay and about 12,000 (3.5%) were called active. Not shown: some 18% with an inconclusive outcome. The call rests on the fitted dose curve; in most records, active means well fitted inhibition curve with a large enough effect; inconclusive means small, poorly fitted or top-dose-only effect, or another doubt; inactive means no such curve, though single readings can be large or run the other way. The entries come from a sample that favours actives as a whole.
Entry note: the call must match one of true (active), false (inactive)

(Q) Per the assay record, what outcome was assigned to Cc1cccc(NC(=O)CN2CCN(CC(=O)NCC3(N4CCCCC4)CCCCC3)CC2)c1C ?
(A) false

(Q) Per the assay record, what outcome was assigned to N#CC1(NC(=O)COC(=O)CSc2ccc(F)cc2)CCCCC1 ?
(A) false

(Q) Per the assay record, what outcome was assigned to CC1CCCCC1NC(=O)NC(=O)COC(=O)C1=NN(c2ccccc2)C(=O)CC1 (stereo not given) ?
(A) false

(Q) Per the assay record, what outcome was assigned to COc1ccc(CCNC(=O)c2ccccc2-c2ccccc2C(=O)O)cc1OC ?
(A) false

(Q) Per the assay record, what outcome was assigned to COc1ccc(CCN2C(=O)C(C)=C(C)C2=O)cc1OC ?
(A) false

(Q) Per the assay record, what outcome was assigned to c1ccc(-c2oc3ncnc(N4CCOCC4)c3c2-c2ccccc2)cc1 ?
(A) false

(Q) Per the assay record, what outcome was assigned to CCCCOc1ccc(C(=O)NCC(=O)OCC(=O)c2c(N)n(C)c(=O)n(C)c2=O)cc1 ?
(A) false

(Q) Per the assay record, what outcome was assigned to O=S1(=O)CCOC[C@H](Cc2ccccc2)N1Cc1ccccc1Br ?
(A) false

(Q) Per the assay record, what outcome was assigned to COc1ccc(CCNC2=C(Cl)C(=O)N(Cc3ccccc3)C2=O)cc1OC ?
(A) true

(Q) Per the assay record, what outcome was assigned to N=c1c2c(-c3ccccc3)c(-c3ccccc3)oc2ncn1Cc1ccco1 ?
(A) true
